TARGET ENTITY: Dopamine beta-hydroxylase (Bos taurus, UniProt P15101)
Sequence (P15101 whole entry): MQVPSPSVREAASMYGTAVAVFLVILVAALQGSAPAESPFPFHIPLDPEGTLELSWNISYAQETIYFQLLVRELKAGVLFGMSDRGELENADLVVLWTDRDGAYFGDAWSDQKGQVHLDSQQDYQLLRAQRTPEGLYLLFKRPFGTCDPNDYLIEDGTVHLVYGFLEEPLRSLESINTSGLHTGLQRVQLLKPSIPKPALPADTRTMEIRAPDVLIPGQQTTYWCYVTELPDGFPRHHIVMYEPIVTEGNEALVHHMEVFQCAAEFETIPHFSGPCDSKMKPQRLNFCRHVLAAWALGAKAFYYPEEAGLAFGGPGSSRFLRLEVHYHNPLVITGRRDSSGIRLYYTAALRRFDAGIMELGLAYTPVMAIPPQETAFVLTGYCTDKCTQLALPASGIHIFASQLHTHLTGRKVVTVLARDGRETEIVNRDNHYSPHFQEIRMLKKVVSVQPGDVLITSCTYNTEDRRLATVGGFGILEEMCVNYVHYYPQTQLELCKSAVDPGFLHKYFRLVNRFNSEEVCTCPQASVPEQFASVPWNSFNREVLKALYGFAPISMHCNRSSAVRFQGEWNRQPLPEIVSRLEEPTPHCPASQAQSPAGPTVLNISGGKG
EXPERIMENT DESCRIPTION: Compound was evaluated for the inhibition of Dopamine beta hydroxylase at pH 4.5
TEST READOUT: Ki (µM)

[[record]]
molecule = "Cn1cc[nH]c1=S [METHIMAZOLE]"
reading = 45

